Assay: Peptide stability in human serum
Conditions: human serum (50% v/v) from a healthy donor
Peptide text beside a SMILES is read from it.
Overview of recorded half-life at 1 mM for various molecules
measured attribute: half-life at 1 mM (h)

| molecule | quantitative readout |
| --- | --- |
| CC(C)C[C@H](NC(=O)[C@@H](N)[C@@H](C)O)C(=O)N[C@@H](Cc1c[nH]cn1)C(N)=O [TLH] (H-Thr-Leu-His-NH2) | 4.36 |
| CC[C@H](C)[C@H](NC(=O)[C@H](Cc1ccccc1)NC(=O)[C@@H](N)C(C)C)C(N)=O [VFI] (H-Val-Phe-Ile-NH2) | 12.4 |

These data points were gathered from paper PMC9612326.
